B1: TCAP (parent)
chain: YQRVLPLPIFTPAKMGATKEERED

Variants of: B1
assay: protein stability index of a GFP-peptide fusion (GPS, HEK-293T) (PSI 1-6); higher = more stable;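 also: lentivirally expressed fusions sorted by FACS into six bins by GFP to DsRed ratio, PSI derived from sequencing read proportions per bin multiplied by bin number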
assay-setup: c terminus: a fixed tail appended
measured-attribute: protein stability index
// response body must contain only the number

Example entries begin here.
mutant-code: P12S
protein stability index: 3.2

mutant-code: E21Y
protein stability index: 2.14

mutant-code: K14H
protein stability index: 2.18

Task: protein stability index lookup needed for "M15V" , thanks.
Output: 2.39

Task: protein stability index lookup needed for "P12R" , thanks.
Output: 3.47

Task: protein stability index lookup needed for "R22D" , thanks.
Output: 2.18
